Substrate: CCCCCCCC(=O)Oc1ccc([N+](=O)[O-])cc1
Assay: purified protein
Assay type: biochemical, Dorea formicigenerans
Conditions: 10 mM Tris-HCl pH 8.4, 2.5% Triton X-100, 40 °C
observable: kcat (s⁻¹)
One number for each entry, in s⁻¹.

Qu. Tell us which kcat value is on record for DfFAE (Dorea formicigenerans) (protein, E. coli T7; trimeric by SEC (117 kDa)) MNQKKECMDVHVNGLKFHVQTFGSGVPIIMIMGLGAPGDKWKHNYELLSKWFWCIVPDNRGAGLSDKPEAESYTTEQMADDIIGIMDALDIKKAHVMGVSMGGAIAQQVALKVPDRVLSLILTSTFASVSPAFKKALNLICELKEDTDPAVLKQLNLWMTYGQYTQIHHPEKIEKSIEEDAAYPYPMPVYAYKAQCGACLSHNTAGRLHELKMPVLIAAGAKDLFMNIEKTMELVHGIPQAEFYLAPEGGHVHQWEYPEPYDSVVVGFLMKHTN
Ans. 0.186
